Measured values drawn from PubChem BioAssay AID588780 for this set.

Tested on: H9c2 cardiomyocytes, 2-deoxyglucose stress, ATP luminescence, 2 h
MEASUREMENT_NOTES: H9c2 cell survival under 2-deoxyglucose stress – uHTS hits, dose response (AID 588780)
Calls of active or inactive are those of the source.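 Rule for the calls: active = compounds whose fitted half-maximal concentration in the cell-protection dose series is at or below a set limit; inactive = the rest.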
Outcomes: label 1 (active), label 0 (inactive)

QUERY_SMILES	CLASS
COc1ccc(-c2ccc3[nH]c4c(c3c2)CCN2C[C@H]3[C@H](C)ON(C)[C@H]3C[C@@H]42)cc1	label 0
C/C(=N\NC(=O)c1ccccc1-n1cccc1)c1ccccn1	label 0
COc1cc(-c2cnc3c(NC=O)cc(-c4cccnc4)cn23)cc(OC)c1OC	label 1
CCN1C(=O)[C@H]2[C@@H](c3ccc(-c4ccc(C(C)=O)cc4)cc3)N[C@@](C)(C(=O)OC)[C@H]2C1=O	label 0
